Assay: Quantum yield measurements versus Acridine Yellow in EtOH
Format: physicochemical
Conditions: MKAC compound library; quantum yield
Property: φ (%); scope: individual molecules

Inquiry: Give φ (%) for CC(=O)Nc1ccc(C2=C3C=CC(NCc4ccccc4C)=[N+]3[B-](F)(F)n3c2ccc3-n2cc(CN(C)Cc3ccccc3)nn2)cc1
Reply text: 13.14%

Inquiry: Give φ (%) for CCCCCC(O)c1cn(-c2ccc3n2[B-](F)(F)[N+]2=C(NCc4ccccc4C)C=CC2=C3c2ccc(NC(C)=O)cc2)nn1 (stereo not shown)
Reply text: 24.08%

Inquiry: Give φ (%) for CC(=O)Nc1ccc(C2=C3C=CC(NCc4ccccc4C)=[N+]3[B-](F)(F)n3c2ccc3-n2cc(C3CCCC3)nn2)cc1
Reply text: 23.69%

Inquiry: Give φ (%) for CCCc1cn(-c2ccc3n2[B-](F)(F)[N+]2=C(NCc4cc(F)cc(F)c4)C=CC2=C3c2ccc(NC(C)=O)cc2)nn1
Reply text: 22.19%

----------
Test: Absorbance and fluorescence emission spectra (SpectraMax M2)
Format: physicochemical
Conditions: MK library, Table 5
Property: λmax Absorp.; scope: individual compounds
# unit: nm | format: bare number

Please review the following examples before continuing.
compound	outcome_measure	meas_value
Nc1ccc(C2=C3C=CC(N4CCc5ccccc5C4)=[N+]3[B-](F)(F)n3c2ccc3-n2cc(C3CCCC3)nn2)cc1	λmax Absorp.	481
Cc1ccccc1CNC1=[N+]2C(=C(c3ccc(N)cc3)c3ccc(-n4cc(CO)nn4)n3[B-]2(F)F)C=C1	λmax Absorp.	474
CN(Cc1ccccc1)C1=[N+]2C(=C(c3ccc(N)cc3)c3ccc(-n4cc(CO)nn4)n3[B-]2(F)F)C=C1	λmax Absorp.	475

Inquiry: Give λmax Absorp. for CCOc1ccccc1CNC1=[N+]2C(=C(c3ccc(N)cc3)c3ccc(-n4cc(C5CCCC5)nn4)n3[B-]2(F)F)C=C1
Reply text: 473

Inquiry: Give λmax Absorp. for CCCCCC(O)c1cn(-c2ccc3n2[B-](F)(F)[N+]2=C(N4CCc5ccccc5C4)C=CC2=C3c2ccc(N)cc2)nn1 (stereo not drawn)
Reply text: 480

Inquiry: Give λmax Absorp. for CCCCCC(O)c1cn(-c2ccc3n2[B-](F)(F)[N+]2=C(NCc4ccccc4OCC)C=CC2=C3c2ccc(N)cc2)nn1 (stereo not drawn)
Reply text: 474

----------
Assay: Absorbance and fluorescence emission spectra (SpectraMax M2)
Type: physicochemical
Settings: MKAC compound library; fluorescence emission maximum
outcome_measure: λmax Em. (nm)
A complete answer gives the number and then names the unit.

compound	outcome_measure	meas_value
CC(=O)Nc1ccc(C2=C3C=CC(NCc4ccccc4C)=[N+]3[B-](F)(F)n3c2ccc3-n2cc(CC(C)C)nn2)cc1	λmax Em. (nm)	562 nm
CCCc1cn(-c2ccc3n2[B-](F)(F)[N+]2=C(N4CC(C)OC(C)C4)C=CC2=C3c2ccc(NC(C)=O)cc2)nn1 (stereo not drawn)	λmax Em. (nm)	581 nm
CCCC(C)c1cn(-c2ccc3n2[B-](F)(F)[N+]2=C(N(C)Cc4ccccc4)C=CC2=C3c2ccc(NC(C)=O)cc2)nn1 (racemic)	λmax Em. (nm)	574 nm

Inquiry: Give λmax Em. (nm) for CC(=O)Nc1ccc(C2=C3C=CC(N4CCCC4)=[N+]3[B-](F)(F)n3c2ccc3-n2cc(CCc3ccccc3)nn2)cc1
Reply text: 567 nm

Inquiry: Give λmax Em. (nm) for CC(=O)Nc1ccc(C2=C3C=CC(N(C)Cc4ccccc4)=[N+]3[B-](F)(F)n3c2ccc3-n2cc(C3CCCC3)nn2)cc1
Reply text: 578 nm

Inquiry: Give λmax Em. (nm) for CC(=O)Nc1ccc(C2=C3C=CC(N4CCc5ccccc5C4)=[N+]3[B-](F)(F)n3c2ccc3-n2cc(C3CC3)nn2)cc1
Reply text: 580 nm
